Data provenance is PubChem BioAssay.

Listed here: items and their measured viability.
methodSummary: reversal of MRP1-mediated doxorubicin resistance, pilot screen, H69AR cells, doxorubicin co-treatment (AID 601)
conditions: H69AR cells + 2 uM doxorubicin, CellTiter-Glo, 72 h; measured here: viability with 2 uM doxorubicin; at 10 µM; stronger effect = lower value
reportedProperty: viability (%)

> print(dat)
                                    molecule  reportedvalue
 1  O=S1(=O)CCC(NS(=O)(=O)/C=C/c2ccccc2)C1 (configuration not stated)           90.1
 2  CCN(CC)CCCN(Cc1cc2cc(OC)ccc2[nH]c1=O)C(=O)Nc1ccccc1           74.3
 3  CCOC(=O)N1CCC(N2C(=O)c3ccccc3C2Nc2ccc3c(C)cc(=O)oc3c2)CC1 (configuration not stated)           69.5
 4  O=C(Nc1ccc2c(c1)OCO2)c1nn(-c2ccccc2)c(=O)c2ccccc12           79.4
 5   O=C(OCc1nnc(-c2ccccc2)o1)c1ccc2ccccc2n1           90.1
 6   CCOc1ccc(C(C)=O)cc1COc1ccc(-n2cnnn2)cc1           79.8
 7     O=C(OCC(=O)c1c[nH]c2ccccc12)C1=COCCO1            100
 8  O=C(O)C1CC(=O)N(c2ccc(OCc3ccccc3Cl)cc2)C1 (configuration not stated)           81.6
 9  O=C(O)c1[nH]c2ccc(Cl)cc2c1CC(=O)N1CCN(C(=O)c2ccco2)CC1           90.5
10  CCOC(=O)CN1CC23C=CC(O2)C(C(=O)Nc2ccc(OC)cc2OC)C3C1=O (configuration not stated)           93.9
11  COC(=O)C(NC(C)=O)(Nc1ccccn1)C(F)(F)F (configuration not stated)           94.4
12  Cc1cccc2sc(NC(=O)CN(C)S(=O)(=O)c3cccs3)nc12           92.5
